Test system: 521955-158-R2-J5-PDC complex spheroid growth
Assay: Anticancer human tumor 521955-158-R2-J5-PDC patient-derived pancreatic carcinoma cell line growth inhibition [AhR]
Settings: second compound 0.316 µM; first compound 0.000316 µM; stronger effect = lower value
Can you tell me viability, T/C for the items I'm about to list?
Give your result in % as a bare value.

In: Write down viability, T/C measured for item Cn1ncnc1C1c2n[nH]c(=O)c3cc(F)cc(c23)NC1c1ccc(F)cc1 (stereo not drawn) + Cc1cncc(-c2nc(NCCc3c[nH]c4ccccc34)c3ncn(C(C)C)c3n2)c1
Out: 105

In: Write down viability, T/C measured for item CC[C@@]1(O)C(=O)OCc2c1cc1n(c2=O)Cc2cc3c(CN(C)C)c(O)ccc3nc2-1 + Cc1ccccc1N=Nc1ccc(NC(=O)c2ccnn2C)c(C)c1
Out: 92.1

In: Write down viability, T/C measured for item Cn1ncnc1C1c2n[nH]c(=O)c3cc(F)cc(c23)NC1c1ccc(F)cc1 (stereo not drawn) + CC(CO)NC(=O)c1cc(-c2ccc(Cl)cc2)nn(-c2cnn(C)c2)c1=O
Out: 117

----------
Can you tell me IC50 for the items I'm about to list?
System: 521955-158-R2-J5-PDC complex spheroid growth
Assay: Anticancer human tumor 521955-158-R2-J5-PDC cell line growth inhibition [AhR]
Conditions: curve of first compound; second compound 0.1 µM
Source text: Multicellular complex tumor spheroid response to aryl hydrocarbon receptor antagonists in combination with a variety of drugs and investigational agents in selected tumor cell lines […] Compounds. […] If the clinical Cmax for an agent had not been determined, the highest concentration tested was 10 microM (Table 1). […]
Give your result in nM as a bare value.

In: Check 521955-158-R2-J5-PDC complex spheroid growth data and give IC50 for Nc1ccn(C2OC(CO)C(O)C2(F)F)c(=O)n1 (stereo unspecified) + Cc1cncc(-c2nc(NCCc3c[nH]c4ccccc34)c3ncn(C(C)C)c3n2)c1 .
Out: 571

In: Check 521955-158-R2-J5-PDC complex spheroid growth data and give IC50 for Nc1ccn(C2OC(CO)C(O)C2(F)F)c(=O)n1 (stereo unspecified) + CC(CO)NC(=O)c1cc(-c2ccc(Cl)cc2)nn(-c2cnn(C)c2)c1=O .
Out: 518

In: Check 521955-158-R2-J5-PDC complex spheroid growth data and give IC50 for COc1cc(C2c3cc4c(cc3C(OC3OC5COC(C)OC5C(O)C3O)C3COC(=O)C23)OCO4)cc(OC)c1O (stereo unspecified) + Cc1ccccc1N=Nc1ccc(NC(=O)c2ccnn2C)c(C)c1 .
Out: 755

In: Check 521955-158-R2-J5-PDC complex spheroid growth data and give IC50 for O=C(C=Cc1cccc(S(=O)(=O)Nc2ccccc2)c1)NO + Cc1cncc(-c2nc(NCCc3c[nH]c4ccccc34)c3ncn(C(C)C)c3n2)c1 .
Out: 5890

In: Check 521955-158-R2-J5-PDC complex spheroid growth data and give IC50 for CCc1c2c(nc3ccc(O)cc13)-c1cc3c(c(=O)n1C2)COC(=O)[C@]3(O)CC + Cc1cncc(-c2nc(NCCc3c[nH]c4ccccc34)c3ncn(C(C)C)c3n2)c1 .
Out: 4.04

----------
Test system: 521955-158-R2-J5-PDC complex spheroid growth
Experiment: Anticancer human tumor 521955-158-R2-J5-PDC cell line growth inhibition [AhR];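 on viability, T/C: spheroids mix tumor cells with HUVEC endothelium and human MSC stroma; luminescence taken as viability surrogate after a week of drug exposure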
Conditions: second compound 0.1 µM; first compound 0.0316 µM; stronger effect = lower value
property measured: viability, T/C

In: Write down viability, T/C measured for item COc1ccc([C@@H](O)c2cc(-c3ncnc4cc(N5CCOCC5)ccc34)c(F)cc2Cl)nn1 + CC(CO)NC(=O)c1cc(-c2ccc(Cl)cc2)nn(-c2cnn(C)c2)c1=O
Out: 94.8%

In: Write down viability, T/C measured for item COc1cc(Nc2ncc3c(n2)-c2ccc(Cl)cc2C(c2c(F)cccc2OC)=NC3)ccc1C(=O)O + Cc1cncc(-c2nc(NCCc3c[nH]c4ccccc34)c3ncn(C(C)C)c3n2)c1
Out: 100%

In: Write down viability, T/C measured for item Nc1ccn(C2OC(CO)C(O)C2(F)F)c(=O)n1 (stereo unspecified) + Cc1ccccc1N=Nc1ccc(NC(=O)c2ccnn2C)c(C)c1
Out: 76.7%

In: Write down viability, T/C measured for item O=C(c1cc(Cc2n[nH]c(=O)c3ccccc23)ccc1F)N1CCN(C(=O)C2CC2)CC1 + Cc1cncc(-c2nc(NCCc3c[nH]c4ccccc34)c3ncn(C(C)C)c3n2)c1
Out: 106%

In: Write down viability, T/C measured for item O=C(c1cc(Cc2n[nH]c(=O)c3ccccc23)ccc1F)N1CCN(C(=O)C2CC2)CC1 + Cc1ccccc1N=Nc1ccc(NC(=O)c2ccnn2C)c(C)c1
Out: 101%

In: Write down viability, T/C measured for item Nc1ccccc1NC(=O)c1ccc(CNC(=O)OCc2cccnc2)cc1 + CC(CO)NC(=O)c1cc(-c2ccc(Cl)cc2)nn(-c2cnn(C)c2)c1=O
Out: 119%

----------
Tested on: 521955-158-R2-J5-PDC complex spheroid growth
Assay: Anticancer human tumor 521955-158-R2-J5-PDC cell line growth inhibition [AhR];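 on viability, T/C: spheroids mix tumor cells with HUVEC endothelium and human MSC stroma; luminescence taken as viability surrogate after a week of drug exposure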
Conditions: second compound 3.16 µM; first compound 3 µM; stronger effect = lower value
property measured: viability, T/C (%)
Give your result in % as a bare value.

In: Check 521955-158-R2-J5-PDC complex spheroid growth data and give viability, T/C for CCN(c1cc(-c2ccc(CN3CCOCC3)cc2)cc(C(=O)NCc2c(C)cc(C)[nH]c2=O)c1C)C1CCOCC1 + CC(CO)NC(=O)c1cc(-c2ccc(Cl)cc2)nn(-c2cnn(C)c2)c1=O .
Out: 91

In: Check 521955-158-R2-J5-PDC complex spheroid growth data and give viability, T/C for O=C(C=Cn1cnc(-c2cc(C(F)(F)F)cc(C(F)(F)F)c2)n1)NNc1cnccn1 + Cc1ccccc1N=Nc1ccc(NC(=O)c2ccnn2C)c(C)c1 .
Out: 29.8

In: Check 521955-158-R2-J5-PDC complex spheroid growth data and give viability, T/C for CCN(c1cc(-c2ccc(CN3CCOCC3)cc2)cc(C(=O)NCc2c(C)cc(C)[nH]c2=O)c1C)C1CCOCC1 + Cc1ccccc1N=Nc1ccc(NC(=O)c2ccnn2C)c(C)c1 .
Out: 112

In: Check 521955-158-R2-J5-PDC complex spheroid growth data and give viability, T/C for CCN(c1cc(-c2ccc(CN3CCOCC3)cc2)cc(C(=O)NCc2c(C)cc(C)[nH]c2=O)c1C)C1CCOCC1 + Cc1cncc(-c2nc(NCCc3c[nH]c4ccccc34)c3ncn(C(C)C)c3n2)c1 .
Out: 124

In: Check 521955-158-R2-J5-PDC complex spheroid growth data and give viability, T/C for O=C(C=Cn1cnc(-c2cc(C(F)(F)F)cc(C(F)(F)F)c2)n1)NNc1cnccn1 + CC(CO)NC(=O)c1cc(-c2ccc(Cl)cc2)nn(-c2cnn(C)c2)c1=O .
Out: 25.6

In: Check 521955-158-R2-J5-PDC complex spheroid growth data and give viability, T/C for O=C(C=Cn1cnc(-c2cc(C(F)(F)F)cc(C(F)(F)F)c2)n1)NNc1cnccn1 + Cc1cncc(-c2nc(NCCc3c[nH]c4ccccc34)c3ncn(C(C)C)c3n2)c1 .
Out: 23.8

----------
System: 521955-158-R2-J5-PDC complex spheroid growth
Experiment: Anticancer human tumor 521955-158-R2-J5-PDC cell line growth inhibition [AhR];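 on viability, T/C: spheroids mix tumor cells with HUVEC endothelium and human MSC stroma; luminescence taken as viability surrogate after a week of drug exposure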
Settings: second compound 1 µM; first compound 3.16 µM; stronger effect = lower value
Can you tell me viability, T/C for the items I'm about to list?
Give your result in % as a bare value.

In: Write down viability, T/C measured for item CC(C)c1c(-c2ccccc2)nc2c(C#N)c[nH]n2c1=O + Cc1ccccc1N=Nc1ccc(NC(=O)c2ccnn2C)c(C)c1
Out: 92.6

In: Write down viability, T/C measured for item Nc1ccccc1NC(=O)c1ccc(CNC(=O)OCc2cccnc2)cc1 + Cc1ccccc1N=Nc1ccc(NC(=O)c2ccnn2C)c(C)c1
Out: 67.5

In: Write down viability, T/C measured for item O=C(C=Cc1cccc(S(=O)(=O)Nc2ccccc2)c1)NO + CC(CO)NC(=O)c1cc(-c2ccc(Cl)cc2)nn(-c2cnn(C)c2)c1=O
Out: 53.2

In: Write down viability, T/C measured for item COc1ccc([C@@H](O)c2cc(-c3ncnc4cc(N5CCOCC5)ccc34)c(F)cc2Cl)nn1 + Cc1cncc(-c2nc(NCCc3c[nH]c4ccccc34)c3ncn(C(C)C)c3n2)c1
Out: 83.3

In: Write down viability, T/C measured for item CC(C)c1c(-c2ccccc2)nc2c(C#N)c[nH]n2c1=O + CC(CO)NC(=O)c1cc(-c2ccc(Cl)cc2)nn(-c2cnn(C)c2)c1=O
Out: 70.7

In: Write down viability, T/C measured for item COc1cc(C2c3cc4c(cc3C(OC3OC5COC(C)OC5C(O)C3O)C3COC(=O)C23)OCO4)cc(OC)c1O (configuration not stated) + Cc1cncc(-c2nc(NCCc3c[nH]c4ccccc34)c3ncn(C(C)C)c3n2)c1
Out: 27.9

In: Write down viability, T/C measured for item COc1cc(C2c3cc4c(cc3C(OC3OC5COC(C)OC5C(O)C3O)C3COC(=O)C23)OCO4)cc(OC)c1O (configuration not stated) + Cc1ccccc1N=Nc1ccc(NC(=O)c2ccnn2C)c(C)c1
Out: 22.8
